Measured Ki, listed per entry.
Molecular target: T1, iCAL36Q-4
T1 chain: ANSRWQTSII
Assay: fluorescence polarization competition
// units = µM; emit number, no label

- BINDER: "N1P1 PDZ1 (protein) LPRLCCLEKGPNGYGFHLHGEKGKLGQYIRLVEPGSPAEKAGLLAGDRLVEVNGENVEKETHQQVVSRIRAALNAVRLLVVDPETDE"
  QUANTITATIVE RESULT: 280
- BINDER: "N2P2 PDZ2 (protein) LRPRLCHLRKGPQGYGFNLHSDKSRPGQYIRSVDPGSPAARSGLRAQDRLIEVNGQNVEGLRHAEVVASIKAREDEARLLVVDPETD"
  QUANTITATIVE RESULT: 450

Lab note: next binder to report on.
Look up Ki: N2P1 PDZ1 (protein) RPRLCRLVRGEQGYGFHLHGEKGRRGQFIRRVEPGSPAEAAALRAGDRLVEVNGVNVEGETHHQVVQRIKAVEGQTRLLVVDQETD
300
